Tested on: 439559-082-T-J2-PDC spheroids viability
protocol.details: Anticancer human tumor 439559-082-T-J2-PDC patient-derived colon adenocarcinoma cell line growth inhibition [GQUAD]
condition.notes: second compound 3.16 µM; first compound 0.316 µM; hits give low values
Readings of viability, T/C for the listed compounds

Below: 3 compounds and their reported viability, T/C.
COc1cccc2c1C(=O)c1c(O)c3c(c(O)c1C2=O)CC(O)(C(=O)CO)CC3OC1CC(N)C(O)C(C)O1 (stereo not given) + Cc1[nH]c2ccc(F)cc2c1-c1nc2c3cccnc3c3ncccc3c2[nH]1; 85.2%
C=CCn1c(=O)c2cnc(Nc3ccc(N4CCN(C)CC4)cc3)nc2n1-c1cccc(C(C)(C)O)n1 + CN(C)c1ccc(Nc2c3ccc(NC(=O)CCN4CCCC4)cc3nc3cc(NC(=O)CCN4CCCC4)ccc23)cc1; 93.9%
O=C(c1cc(Cc2n[nH]c(=O)c3ccccc23)ccc1F)N1CCN(C(=O)C2CC2)CC1 + Cc1[nH]c2ccc(F)cc2c1-c1nc2c3cccnc3c3ncccc3c2[nH]1; 92.7%

// O=C(c1cc(Cc2n[nH]c(=O)c3ccccc23)ccc1F)N1CCN(C(=O)C2CC2)CC1 + CN(C)c1ccc(Nc2c3ccc(NC(=O)CCN4CCCC4)cc3nc3cc(NC(=O)CCN4CCCC4)ccc23)cc1 : viability, T/C value = 94.9%

// CC(C)n1c(=O)n(C)c2cnc3cc(F)c(-c4ccc(OCCCN5CCCCC5)nc4)cc3c21 + Cc1[nH]c2ccc(F)cc2c1-c1nc2c3cccnc3c3ncccc3c2[nH]1 : viability, T/C value = 107%

====

System: 439559-082-T-J2-PDC spheroids viability
protocol.details: Anticancer human tumor 439559-082-T-J2-PDC cell line growth inhibition [GQUAD];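 also: spheroids exposed to the agents for 7 days before readout; percent of luminescence signal in DMSO vehicle wells taken as 100% viability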
condition.notes: second compound 3.16 µM; first compound 0.316 µM; hits give low values
assay.metric: viability, T/C

CC1COCCN1c1cc(C2(S(C)(=N)=O)CC2)nc(-c2ccnc3[nH]ccc23)n1 (stereo not given) + Cc1cnc(CNC(=O)c2c(=O)c3ccc(N4CCCN(C)CC4)nc3n3c2sc2ccccc23)cn1; 66.4%
COc1ncnc(C2CC2)c1-c1ncc2cnn(Cc3ccc(-c4nc(C(F)(F)F)cn4C(C)C)cc3)c2n1 + Cc1[nH]c2ccc(F)cc2c1-c1nc2c3cccnc3c3ncccc3c2[nH]1; 93.2%
C#Cc1c(F)ccc2cc(O)cc(-c3ncc4c(N5CC6CCC(C5)N6)nc(OCC56CCCN5CC(F)C6)nc4c3F)c12 (stereo not given) + CN(C)c1ccc(Nc2c3ccc(NC(=O)CCN4CCCC4)cc3nc3cc(NC(=O)CCN4CCCC4)ccc23)cc1; 69.1%
CC(C)n1c(=O)n(C)c2cnc3cc(F)c(-c4ccc(OCCCN5CCCCC5)nc4)cc3c21 + CN(C)c1ccc(Nc2c3ccc(NC(=O)CCN4CCCC4)cc3nc3cc(NC(=O)CCN4CCCC4)ccc23)cc1; 121%
CCc1c2c(nc3ccc(O)cc13)-c1cc3c(c(=O)n1C2)COC(=O)[C@]3(O)CC + Cc1[nH]c2ccc(F)cc2c1-c1nc2c3cccnc3c3ncccc3c2[nH]1; 32.5%
O=C(NO)c1cnc(N2CCN(S(=O)(=O)c3ccc4ccccc4c3)CC2)nc1 + CN(C)c1ccc(Nc2c3ccc(NC(=O)CCN4CCCC4)cc3nc3cc(NC(=O)CCN4CCCC4)ccc23)cc1; 62.5%

// Cn1ncnc1[C@H]1c2n[nH]c(=O)c3cc(F)cc(c23)N[C@@H]1c1ccc(F)cc1 + CN(C)c1ccc(Nc2c3ccc(NC(=O)CCN4CCCC4)cc3nc3cc(NC(=O)CCN4CCCC4)ccc23)cc1 : viability, T/C value = 85.5%

// CC(=O)O[C@H]1C(=O)[C@@]2(C)[C@H]([C@H](OC(=O)c3ccccc3)[C@]3(O)C[C@H](OC(=O)[C@H](O)[C@@H](NC(=O)c4ccccc4)c4ccccc4)C(C)=C1C3(C)C)[C@]1(OC(C)=O)CO[C@@H]1C[C@@H]2O + Cc1cnc(CNC(=O)c2c(=O)c3ccc(N4CCCN(C)CC4)nc3n3c2sc2ccccc23)cn1 : viability, T/C value = 72.5%

====

Test system: 439559-082-T-J2-PDC spheroids viability
protocol.details: Anticancer human tumor 439559-082-T-J2-PDC cell line growth inhibition [GQUAD];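 also: spheroids exposed to the agents for 7 days before readout; percent of luminescence signal in DMSO vehicle wells taken as 100% viability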
condition.notes: second compound 3.16 µM; first compound 0.1 µM; hits give low values
assay.metric: viability, T/C (%)
Your answer is read as %, so omit the unit and give the number.

CCCS(=O)(=O)Nc1ccc(F)c(C(=O)c2c[nH]c3ncc(-c4ccc(Cl)cc4)cc23)c1F + Cc1[nH]c2ccc(F)cc2c1-c1nc2c3cccnc3c3ncccc3c2[nH]1; 86
COc1ncnc(C2CC2)c1-c1ncc2cnn(Cc3ccc(-c4nc(C(F)(F)F)cn4C(C)C)cc3)c2n1 + CN(C)c1ccc(Nc2c3ccc(NC(=O)CCN4CCCC4)cc3nc3cc(NC(=O)CCN4CCCC4)ccc23)cc1; 98.4
CCCS(=O)(=O)Nc1ccc(F)c(C(=O)c2c[nH]c3ncc(-c4ccc(Cl)cc4)cc23)c1F + CN(C)c1ccc(Nc2c3ccc(NC(=O)CCN4CCCC4)cc3nc3cc(NC(=O)CCN4CCCC4)ccc23)cc1; 101

// COc1cc(C2c3cc4c(cc3C(OC3OC5COC(C)OC5C(O)C3O)C3COC(=O)C23)OCO4)cc(OC)c1O (stereo not given) + CN(C)c1ccc(Nc2c3ccc(NC(=O)CCN4CCCC4)cc3nc3cc(NC(=O)CCN4CCCC4)ccc23)cc1 : viability, T/C value = 87.1

// CC1COCCN1c1cc(C2(O)CC3CCC(C2)O3)c2cnn(-c3ccn[nH]3)c2n1 (stereo not given) + Cc1[nH]c2ccc(F)cc2c1-c1nc2c3cccnc3c3ncccc3c2[nH]1 : viability, T/C value = 67.8

// Cc1cccc(N(C)C(=O)C2C(O)CCN2c2nc(C)cc(C(F)(F)F)c2C#N)c1 (stereo not given) + CN(C)c1ccc(Nc2c3ccc(NC(=O)CCN4CCCC4)cc3nc3cc(NC(=O)CCN4CCCC4)ccc23)cc1 : viability, T/C value = 93.5

// CC(C)n1c(=O)n(C)c2cnc3cc(F)c(-c4ccc(OCCCN5CCCCC5)nc4)cc3c21 + Cc1cnc(CNC(=O)c2c(=O)c3ccc(N4CCCN(C)CC4)nc3n3c2sc2ccccc23)cn1 : viability, T/C value = 60.6

// CCCS(=O)(=O)Nc1ccc(F)c(C(=O)c2c[nH]c3ncc(-c4ccc(Cl)cc4)cc23)c1F + Cc1cnc(CNC(=O)c2c(=O)c3ccc(N4CCCN(C)CC4)nc3n3c2sc2ccccc23)cn1 : viability, T/C value = 71.5

// COc1cccc2c1C(=O)c1c(O)c3c(c(O)c1C2=O)CC(O)(C(=O)CO)CC3OC1CC(N)C(O)C(C)O1 (stereo not given) + Cc1[nH]c2ccc(F)cc2c1-c1nc2c3cccnc3c3ncccc3c2[nH]1 : viability, T/C value = 75

// O=C(c1cc(Cc2n[nH]c(=O)c3ccccc23)ccc1F)N1CCN(C(=O)C2CC2)CC1 + Cc1cnc(CNC(=O)c2c(=O)c3ccc(N4CCCN(C)CC4)nc3n3c2sc2ccccc23)cn1 : viability, T/C value = 62.9

====

Test system: 439559-082-T-J2-PDC spheroids viability
protocol.details: Anticancer human tumor 439559-082-T-J2-PDC cell line growth inhibition [GQUAD];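 also: spheroids exposed to the agents for 7 days before readout; percent of luminescence signal in DMSO vehicle wells taken as 100% viability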
condition.notes: second compound 0.0316 µM; first compound 1 µM; hits give low values
Readings of viability, T/C for the listed molecules
Your answer is read as %, so omit the unit and give the number.

Below: 2 molecules and their reported viability, T/C.
CC(C)n1c(=O)n(C)c2cnc3cc(F)c(-c4ccc(OCCCN5CCCCC5)nc4)cc3c21 + CN(C)c1ccc(Nc2c3ccc(NC(=O)CCN4CCCC4)cc3nc3cc(NC(=O)CCN4CCCC4)ccc23)cc1; 116
Nc1ccn(C2OC(CO)C(O)C2(F)F)c(=O)n1 (stereo not drawn) + Cc1cnc(CNC(=O)c2c(=O)c3ccc(N4CCCN(C)CC4)nc3n3c2sc2ccccc23)cn1; 35.3

Now look at this one.
// CC1COCCN1c1cc(C2(O)CC3CCC(C2)O3)c2cnn(-c3ccn[nH]3)c2n1 (stereo not drawn) + Cc1cnc(CNC(=O)c2c(=O)c3ccc(N4CCCN(C)CC4)nc3n3c2sc2ccccc23)cn1 : viability, T/C value = 47.8

====

Tested on: 439559-082-T-J2-PDC spheroids viability
protocol.details: Anticancer human tumor 439559-082-T-J2-PDC cell line growth inhibition [GQUAD];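 also: spheroids exposed to the agents for 7 days before readout; percent of luminescence signal in DMSO vehicle wells taken as 100% viability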
condition.notes: second compound 3.16 µM; first compound 0.316 µM; hits give low values
assay.metric: viability, T/C (%)
Your answer is read as %, so omit the unit and give the number.

Below: 2 molecules and their reported viability, T/C.
O=c1[nH]cc(F)c(=O)[nH]1 + Cc1[nH]c2ccc(F)cc2c1-c1nc2c3cccnc3c3ncccc3c2[nH]1; 76.5
COc1cccc2c1C(=O)c1c(O)c3c(c(O)c1C2=O)CC(O)(C(=O)CO)CC3OC1CC(N)C(O)C(C)O1 (stereo not given) + CN(C)c1ccc(Nc2c3ccc(NC(=O)CCN4CCCC4)cc3nc3cc(NC(=O)CCN4CCCC4)ccc23)cc1; 84

// CCc1c2c(nc3ccc(O)cc13)-c1cc3c(c(=O)n1C2)COC(=O)[C@]3(O)CC + CN(C)c1ccc(Nc2c3ccc(NC(=O)CCN4CCCC4)cc3nc3cc(NC(=O)CCN4CCCC4)ccc23)cc1 : viability, T/C value = 43.2

// Cn1ncnc1[C@H]1c2n[nH]c(=O)c3cc(F)cc(c23)N[C@@H]1c1ccc(F)cc1 + Cc1[nH]c2ccc(F)cc2c1-c1nc2c3cccnc3c3ncccc3c2[nH]1 : viability, T/C value = 76.2

// CC(C)n1c(=O)n(C)c2cnc3cc(F)c(-c4ccc(OCCCN5CCCCC5)nc4)cc3c21 + Cc1cnc(CNC(=O)c2c(=O)c3ccc(N4CCCN(C)CC4)nc3n3c2sc2ccccc23)cn1 : viability, T/C value = 67.6
